# Method: soluble on expression in E. coli; label from the status in PepcDB or PDB records
Property: soluble on expression in E. coli

- Sequence Content: "MAISLQKGQRISLSKEAPGLSKMMCGLGWDVAKRSGGGFFSNFGGGGQNYDLDASVICLDANGKLTAKENIIYFGNLQHLSGAITHTGDNLTGAGDGDDEVIIVDLPRIPAQIVKLVFVVNIYDCIARKQDFSQIENAFVRLVNAANNKELARYNLSGKEYLGMTGMVLAEVYRHNDDWKLAAIGNGVNVNGLGELAGSYS"
  Property: "soluble on expression in E. coli"
  Value Reported: "not soluble"
- Sequence Content: "MGGSHHHHHHMASSVPIPGIKDISKLKFFYGFKYLWNPTVYNKIFDKLDLTKTYKHPEELKVLDLYPGVGIQSAIFYNKYCPRQYSLLEKRSSLYKFLNAKFEGSPLQILKRDPYDWSTYSNLIDEERIFVPEVQSSDHINDKFLTVANVTGEGSEGLIMQWLSCIGNKNWLYRFGKVKMLLWMPSTTARKLLARPGMHSRSKCSVVREAFTDTKLIAISDANELKGFDSQCIEEWDPILFSAAEIWPTKGKPIALVEMDPIDFDFDVDNWDYVTRHLMILKRTPLNTVMDSLGHGGQQYFNSRITDKDLLKKCPIDLTNDEFIYLTKLFMEWPFKPDILMDFVDMYQTEHSG"
  Property: "soluble on expression in E. coli"
  Value Reported: "soluble"
- Sequence Content: "MGARCDVAVIGAGPAGCAAAIALKRLGVASVLLLEAGDGARPRFGESLPPDIRLILAQLGLAEAFAALGFDPCVGAASSWGEDGLGYNDFLFNPHGLGWHIDRARFDAFLRDAAVAAGAELRFDTVFDSVVMTGDAARLRVRGERGDETITAGFVLDATGRAARVARALGAERIESDRLVCAAALIRIDPDGLLGQRSLLEAVDYGWWYAARLSPDEAIVVVSTDADLLRARRLHRSDAWYGHLAATRHVAAALGTAAPPSQLMVRQARSSRLSRAADQRWRAIGDAASVYDPIMAQGVTKAMIEGLAAARDIVRHMPDAEEGLDARFADYLSLRDYFYGQEGRWPDAPFWTRRRRPQPAVRTLWEVSALEHHHHHH"
  Property: "soluble on expression in E. coli"
  Value Reported: "not soluble"
- Sequence Content: "MGGTSYLIVGNEGNILIDCPALDQTNLNFLRSHGGVRWLFLTHRGAIGRTAEIQQNYGCDILIQEQEAYLLPGLTVTTFTQEFAVTPTAKAIWTPGHSPGSSCLYYNHQGGVLFSGRHLLPNQKGEPVPLRTAKTFHWPRQIKSLQTILETLTPETLQYICPGANTGFLRGKRSIDTAYQRLASLDLKALLQTQPLEHHHHHH"
  Property: "soluble on expression in E. coli"
  Value Reported: "not soluble"
- Sequence Content: "MYQASCLFYFMTPVFFLLSTYPRNLLIGDSSTAFTKELIAKMNEVTNSAESTSSKRPGRPRKDGHDEKIIDATLRLIDSNRPVTVNAVVKESGVSRAAVYRRWPGLVDLVAEALDAGRAPVEIDTSGDIKETLIDGLFTNQAKTTGVSYPRQRFRKRLELVMSDQELQLAAAALEHHHHHH"
  Property: "soluble on expression in E. coli"
  Value Reported: "not soluble"
- Sequence Content: "MGSDKIHHHHHHMVEFQSRIGKDGRLTVMEIPFDARETFQMPKGTIFVCGTINGIPYRGKLLSRGNGKQVLTIDKTLQKGLGYAGQDFPVNVAMACENQAEMVDEEKEAIPRLHSDMEAITAIAGRASVRKYMDKTVEPQKLEVILRAGLSAPSAKNKRPFHFVVVEDKAVLGAWAAGNSNAKMLSHAPCCIVVCGDGNVEGTRDFLVGGCAAATQNMLIAIHALGLGGVWCGVLRGKEWSRQVAADLYLPVKVEPLAVIALGYPTEQEKAPVPWDMKSHIHYERW"
  Property: "soluble on expression in E. coli"
  Value Reported: "not soluble"
- Sequence Content: "MVAMFLAVAVVLGLATSPTAEGGKATTEEQKLIEDVNASFRAAMATTANVPPADKYKTFEAAFTVSSKRNLADAVSKAPQLVPKLDEVYNAAYNAADHAAPEDKYEAFVLHFSEALRIIAGTPEVHAVKPGA"
  Property: "soluble on expression in E. coli"
  Value Reported: "soluble"
- Sequence Content: "LGSPMAYFVENFWGEKNSGFDVLYHNMKHGQISTKELADFVRERATIEEAYSRSMTKLAKSASNYSQLGTFAPVWDVFKTSTEKLANCHLDLVRKLQELIKEVQKYGEEQVKSHKKTKEEVAGTLEAVQTIQSITQALQKSKENYNAKCVEQERLKKEGATQREIEKAAVKSKKATDTYKLYVEKYALAKADFEQKMTETAQKFQDIEETHLIHIKEIIGSLSNAIKEIHLQIGQVHEEFINNMANTTVESLIQKFAESKGTGKERPGLIEFEECD"
  Property: "soluble on expression in E. coli"
  Value Reported: "soluble"
- Sequence Content: "MPLSDADYNDPDNEEVAFLSRGLLEACIEFIRETPAGDALRIVAYEFTFKRILLELKAALERGVDVRIVYHATTANEKAIADAKLPENSKGVQILFKRTRPQTPHNKFIVRLKKGKTPVSVWTGSTNFTPSGFLGQTNVGHKVTDGDIAKIYLQLWEGLKADPDDFDATQAAMALTPLEHHHHHH"
  Property: "soluble on expression in E. coli"
  Value Reported: "soluble"
- Sequence Content: "MPDKKREVSLSHRLQEVASFVPKGARLLDVGSDHAYLPIYLLEQGLIDFAVAGEIIKGPYESAVANVSESELSGQIAVRLADGLAALNDNDDIDLITICGMGGRLIADILAAGSDKLNSVKQLILQPNNCEDDLRSWLVANDFMIKAEKMVKDRHKYYEILVVEKGKITLSDKDLRFGPFLRQERSSIFKERWRKELAKLELALTKVPAKKKADNMFLSTKIEQIKEVLYES"
  Property: "soluble on expression in E. coli"
  Value Reported: "not soluble"
- Sequence Content: "MEITKTDLFYNISEQQQAEMMHCFKTYTRTYKSGEVICFYDDNNIGVGIIESGSARVIHFLPNGTQTILEQLCRGDLFGQLFYHYACPESISLEATCDCVVRFIDYEHIIKRCSKACPHHSQLVNNILVIISDKTRSICEHLEVLSGRTIRDRLNNYFEILSSKSGSNTFKLPFTMTALADYLSVDRSAMSRELKKMKDEGLIQTNKGIVTINR"
  Property: "soluble on expression in E. coli"
  Value Reported: "not soluble"
- Sequence Content: "MDSVVSDVSDLVEPDEELKAWQTDRTRAPIATKIVVAGGFGAGKTTLVTAVSEITPLQTEALMTQASEDTDDLTGTPDKLTTTVAMDFGRITLDDDLVLYLFGTPGQQRFWFMWDDLVRGAIGAVVLADTRRLSDCFPALDYFESCGLPYVVAVNHFDGSEKFEPEDVREALTVPAHIPVMIMDARRRISVIETLLALVGHALEVSPELEHHHHHH"
  Property: "soluble on expression in E. coli"
  Value Reported: "soluble"
